assay_info: perturbers of mRNA poly(A) processing – luminescence, S. cerevisiae, primary screen (AID 1875);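 further: yeast exposed to compound for 9 h at 30 °C; higher score means more reporter readthrough which indicates perturbed polyadenylation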
experimental_conditions: S. cerevisiae SKY197-pL101 polyadenylation reporter, beta-gal luminescence; at 12 µM; hits give high values; efflux-impaired pdr1/pdr3 knockout yeast; score 100 = 6 SD above DMSO
Among all 300,000 compounds or so, about 65 (0.02%) were called active. Only a selection was taken, and actives are over-represented in it overall.
activity score values by entry
Just the number in %, nothing appended.

Example results:
>  <compound>
Cc1ccc(S(=O)(=O)C2C(=O)NC3(C)CC2c2ccccc2O3)cc1 (configuration not stated)

>  <activity score [%]>
1.24

$$$$
>  <compound>
Cc1ccccc1CN1C[C@@H]2C[C@@H](c3cn(C)nc3-c3ccccc3)N3CCC[C@@]23C1=O

>  <activity score [%]>
-0.645

$$$$
>  <compound>
O=C(c1ccncc1)N1CCN(S(=O)(=O)c2cc(C(F)(F)F)cc(C(F)(F)F)c2)CC1

>  <activity score [%]>
9.96

$$$$
>  <compound>
Clc1ccc(-c2nnc(-c3ccccc3)nc2N2CCSCC2)cc1

>  <activity score [%]>
-11

$$$$

[in] Using the record for Cc1ccc(NC(=O)CN2CCc3ccccc3C2)cc1C , report its activity score.
[out] -2.27

[in] Using the record for CSc1ncc(C(=O)Nc2ccc(C)cc2C)c(C)n1 , report its activity score.
[out] 2.7

[in] Using the record for O=C(Cc1ccccc1)Nc1c(Cl)ccc2nsnc12 , report its activity score.
[out] 16.1

[in] Using the record for COc1ccc(N2CCN(CCNC(=O)c3nnc(Cc4c(F)cccc4Cl)o3)CC2)cc1 , report its activity score.
[out] -12.7

[in] Using the record for S=C(c1ccc(-c2ccccc2)o1)N1CCCCC1 , report its activity score.
[out] -23.1

[in] Using the record for Cc1ccc(NN=Nc2nc3c([nH]2)c(=O)n(C)c(=O)n3C)cc1 , report its activity score.
[out] 15.9

Recorded values, source PubChem BioAssay AID1875.
